A collection of compounds and their measured TGI
Test system: NCI-H460 lung
Experiment: NCI tumour cell line growth inhibition, 48 h

Below, each entry is followed by its recorded TGI result.
Q: // TGI lookup, key: CCCCC(=O)NC1(c2cc3ccccc3s2)CCCCC1
Result: > 100 µM

Q: Cc1cc2cc3c(C)cc(=O)oc3c(C)c2o1 ?
Result: > 100 µM

Q: Cc1occc1C(=S)Nc1ccc(Cl)c(/C=N/OC(C)C)c1 ?
Result: > 57.5 µM

Q: NC(CCP(=O)(O)CCC1C=CC=CC1)C(=O)O (centres undefined) ?
Result: > 100 µM

***
Q: // TGI lookup, key: C(=NCc1ccccc1)c1ccccc1-c1ccccc1C=NCc1ccccc1
Result: > 10 µM

Q: CC/C=C/C(=O)CC(O)(C(F)(F)F)C(F)(F)F ?
Result: > 100 µM

Q: CCOC(=O)/C(C#N)=C1\c2c([nH]c(=S)[nH]c2=O)Oc2ccc3ccccc3c21 ?
Result: > 100 µM

Q: O=c1[nH]c(=S)[nH]n1C(=S)n1[nH]c(=S)[nH]c1=O ?
Result: > 100 µM

Q: O=[N+]([O-])c1ccc(N=Nc2c(O)ccc3ccccc23)cc1 ?
Result: > 100 µM

----------
Test system: SK-MEL-28 melanoma
Test: NCI tumour cell line growth inhibition, 48 h
readoutLabel: TGI

Below, each entry is followed by its recorded TGI result.
Q: Please tell me: TGI of O=c1[nH]ccc2nc(N3CCC(O)CC3)nc(Nc3cccc(C(F)(F)F)c3)c12 , system SK-MEL-28 melanoma?
Result: 17.4 µM

Q: COc1ccc(CNc2c3ccccc3nc3ccc(OC)cc23)cc1 ?
Result: 3.68 µM

Q: Nc1ncn(C2C=C(CO)C(O)C2O)c(=O)n1 (stereo unspecified) ?
Result: > 100 µM

***
Q: Please tell me: TGI of COc1cc(NCc2ccc3nc(OC)c(OC)nc3c2)cc(OC)c1OC , system SK-MEL-28 melanoma?
Result: > 100 µM

Q: C(=NCc1ccccc1)c1ccccc1-c1ccccc1C=NCc1ccccc1 ?
Result: > 10 µM

Q: Fc1ccccc1-c1nn2c(C34CC5CC(CC(C5)C3)C4)nnc2s1 ?
Result: > 100 µM

Q: Cn1c(NS(=O)(=O)c2ccccc2)nc2ccccc21 ?
Result: > 100 µM

Q: CCOC(=O)/C(C#N)=C1\c2c([nH]c(=S)[nH]c2=O)Oc2ccc3ccccc3c21 ?
Result: 3.81 µM

Q: COc1ccc(-c2nc3ncccn3c2/C=C/C(=O)c2cc(OC)c(OC)c(OC)c2)cc1 ?
Result: 3.27 µM

Q: N#Cc1c(Cl)/c(=C/O)c(=O)n2c1nc1ccccc12 ?
Result: > 100 µM

----------
Test system: SK-MEL-28 melanoma
Assay: NCI tumour cell line growth inhibition, 48 h
readoutLabel: TGI

Below, each entry is followed by its recorded TGI result.
Q: // TGI lookup, key: O=c1oc2ccccc2c(O)c1C(c1ccc(/C=C/c2ccccc2)cc1)c1c(O)c2ccccc2oc1=O
Result: 86.9 µM

Q: CCN=c1cc2sc3cc(NCC)c(C)cc3nc-2cc1C ?
Result: 25.6 µM

Q: O=C1c2cc([N+](=O)[O-])ccc2-c2cccc(F)c21 ?
Result: > 100 µM

Q: CC(=O)N/C(=C\c1cccc([N+](=O)[O-])c1)c1nc2c3c(ccc2[nH]1)C(=O)c1ccccc1C3=O ?
Result: > 100 µM

Q: COc1ccc(C(c2c[nH]c3ccc(Br)cc23)c2c[nH]c3ccc(Br)cc23)cc1 ?
Result: 0.743 µM

Q: NC(CCP(=O)(O)CCC1C=CC=CC1)C(=O)O (stereo unspecified) ?
Result: > 100 µM

Q: N#CC(Nc1ccccc1)c1ccc(C(C#N)Nc2ccccc2)cc1 (stereo unspecified) ?
Result: > 100 µM

Q: COc1cc(C2=C(C#N)C(N)OC3=C2COc2ccccc23)cc(OC)c1OC (stereo unspecified) ?
Result: > 100 µM

***
Q: // TGI lookup, key: CN(/N=C/c1ccccn1)C1=NCCCCN1
Result: > 100 µM

Q: COC(=O)C1=Cc2cc(OC)c(O)cc2[C@@H](c2ccc(O)c(OC)c2)[C@@H]1C(=O)OC ?
Result: > 100 µM

Q: CC(C)C1CCC/C=C/C=C/C=C/C=C/C(OC2OC(C)C(O)C(N)C2O)CC2OC(O)(CC(O)CC(O)C(O)CCC(=O)O1)CC(O)C2C(=O)O (stereo unspecified) ?
Result: > 52.5 µM

Data origin: PubChem BioAssay (NCI)
